molecular target: Delta-type opioid receptor (Rattus norvegicus, UniProt P33533); experiment: Binding affinity in competition with [3H]- DPDPE in Opioid receptor delta 1 binding to rat brain membrane
Sequence (P33533 whole entry): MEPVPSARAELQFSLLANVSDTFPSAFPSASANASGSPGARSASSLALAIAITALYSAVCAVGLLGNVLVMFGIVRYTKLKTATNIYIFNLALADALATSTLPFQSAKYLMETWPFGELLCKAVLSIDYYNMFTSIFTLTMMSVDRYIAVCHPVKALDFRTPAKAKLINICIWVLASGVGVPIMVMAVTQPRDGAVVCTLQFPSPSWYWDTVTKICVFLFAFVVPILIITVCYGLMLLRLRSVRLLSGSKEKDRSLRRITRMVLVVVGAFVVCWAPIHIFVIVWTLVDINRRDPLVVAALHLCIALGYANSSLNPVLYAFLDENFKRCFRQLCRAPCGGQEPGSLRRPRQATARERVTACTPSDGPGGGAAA
pIC50: −log10 of the molar value. Positions of bridges follow the written chain, without caps; N, C: chain ends. Non-standard residues stand in square brackets, D forms with d. Residues, ends and D or L forms follow the SMILES beside them. dTic = O=C(O)[C@H]1Cc2ccccc2CN1; Pen = CC(C)(S)[C@H](N)C(=O)O
Respond with MET for pIC50 values of 5 and above, NOT MET for values below.

Recorded results for 6 molecules are shown here.
C[C@@H](O)[C@H](NC(=O)[C@H]1NC(=O)[C@H]([C@@H](C)O)NC(=O)[C@H](CCCN)NC(=O)[C@@H](Cc2c[nH]c3ccccc23)NC(=O)[C@H](Cc2ccc(O)cc2)NC(=O)[C@@H](NC(=O)[C@H]2Cc3ccccc3CN2)CSSC1(C)C)C(N)=O = NOT MET
C[C@@H](O)[C@H](NC(=O)[C@H]1NC(=O)[C@H]([C@@H](C)O)NC(=O)[C@H](CCCN=C(N)N)NC(=O)[C@@H](Cc2c[nH]c3ccccc23)NC(=O)[C@H](Cc2ccc(O)cc2)NC(=O)[C@@H](NC(=O)[C@H](N)Cc2ccccc2)CSSC1(C)C)C(N)=O = MET
C[C@@H](O)[C@@H]1NC(=O)[C@H](CCCN)NC(=O)C(Cc2c[nH]c3ccccc23)NC(=O)[C@H](Cc2ccc(O)cc2)NC(=O)[C@@H](NC(=O)[C@H](N)Cc2ccccc2)CSSC(C)(C)[C@@H](C(N)=O)NC1=O (stereo in doubt) = NOT MET
C[C@@H](O)[C@H](NC(=O)[C@H]1NC(=O)[C@H]([C@@H](C)O)NC(=O)[C@H](CCCN=C(N)N)NC(=O)[C@@H](Cc2c[nH]c3ccccc23)NC(=O)[C@H](Cc2ccc(O)cc2)NC(=O)[C@@H](NC(=O)[C@H]2Cc3ccccc3CN2)CSSC1(C)C)C(N)=O (H-[dTic]CY[dW]RT[Pen]T-NH2; disulfide 2-7) = MET
C[C@@H](O)[C@H](NC(=O)[C@H]1NC(=O)[C@H]([C@@H](C)O)NC(=O)[C@H](CCCCN)NC(=O)C(Cc2c[nH]c3ccccc23)NC(=O)[C@H](Cc2ccc(O)cc2)NC(=O)[C@@H](NC(=O)C(N)Cc2c[nH]c3ccccc23)CSSC1(C)C)C(N)=O (stereo in doubt) = NOT MET
C[C@@H](O)[C@H](NC(=O)[C@@H]1NC(=O)[C@H](CCCCN)NC(=O)C(Cc2c[nH]c3ccccc23)NC(=O)[C@H](Cc2ccc(O)cc2)NC(=O)[C@@H](NC(=O)[C@@H](N)Cc2ccccc2)CSSC1(C)C)C(N)=O (stereo in doubt) = NOT MET

Consider the additional molecule presented here.
Tell me whether pIC50 is at least 5 here: C[C@@H](O)[C@@H]1NC(=O)[C@H](CCCCN)NC(=O)C(Cc2c[nH]c3ccccc23)NC(=O)[C@H](Cc2ccc(O)cc2)NC(=O)[C@@H](NC(=O)[C@H]2Cc3ccccc3CN2)CSSC(C)(C)[C@@H](C(=O)N[C@@H](CO)C(N)=O)NC1=O (stereo in doubt) MET
